- TARGET UNDER TEST: Mineralocorticoid Receptor (MR) (Homo sapiens, UniProt P08235)
- METHOD NOTES: Functional assay of mineralocorticoid receptor antagonism (Gal4-MR mammalian two hybrid luciferase reporter, 293T cells)
- SETUP CONDITIONS: antagonism of aldosterone (0.4 nM)-induced MR activity
- Description: The MR antagonist activity of the compounds is determined in a mammalian two hybrid reporter system. The N-terminus of MR (MR-NT, sequence coding amino acid 1-597) is fused to the activation domain of the VP16 gene. The ligand binding domain of MR (MR-LBD, sequence encoding amino acid 672-984) is fused to the DNA binding domain of the yeast Gal4 gene. The MR gene is cloned from a human kidney cDNA library with PCR. The assay is performed in 384 well plates. […]
Reported IC50 values follow for various molecules

query: What IC50 value was documented for this molecule, CC12CCCC(=O)N1CC1(O2)c2ccccc2C=Cc2ccccc21 (centres unmarked) ?
result: 100 to 1000 nM

query: What IC50 value was documented for this molecule, CC1(C)OC2(CN1C(=O)Nc1ccc(F)cc1F)c1ccccc1C=Cc1ccccc12 ?
result: 1000 to 10000 nM

query: What IC50 value was documented for this molecule, CC12CCCC(=O)N1CC1(O2)c2ccccc2CCc2ccccc21 (centres unmarked) ?
result: 100 to 1000 nM

query: What IC50 value was documented for this molecule, COc1ccc(C2=NCC3(O2)c2ccccc2C=Cc2ccccc23)cc1 ?
result: 100 to 1000 nM

query: What IC50 value was documented for this molecule, O=C1CCC2(c3ccc(F)cc3)OC3(CN12)c1ccccc1C=Cc1ccccc13 (centres unmarked) ?
result: 100 to 1000 nM

query: What IC50 value was documented for this molecule, Oc1ccc(C2=NCC3(O2)c2ccccc2C=Cc2ccccc23)cc1 ?
result: 100 to 1000 nM

query: What IC50 value was documented for this molecule, CC12CCC(=O)N1CC1(O2)c2ccccc2CCc2ccccc21 (single isomer, unassigned) [FRS-13 (Chiral Synthesis)] ?
result: < 100 nM

query: What IC50 value was documented for this molecule, CC12CCC(=O)N1CC1(O2)c2ccccc2C=Cc2ccccc21 (single isomer, unassigned) [FRS-1 (Chiral Synthesis)] ?
result: < 100 nM

====

- TARGET UNDER TEST: UniProt P08235
- Sequence (P08235 672-984): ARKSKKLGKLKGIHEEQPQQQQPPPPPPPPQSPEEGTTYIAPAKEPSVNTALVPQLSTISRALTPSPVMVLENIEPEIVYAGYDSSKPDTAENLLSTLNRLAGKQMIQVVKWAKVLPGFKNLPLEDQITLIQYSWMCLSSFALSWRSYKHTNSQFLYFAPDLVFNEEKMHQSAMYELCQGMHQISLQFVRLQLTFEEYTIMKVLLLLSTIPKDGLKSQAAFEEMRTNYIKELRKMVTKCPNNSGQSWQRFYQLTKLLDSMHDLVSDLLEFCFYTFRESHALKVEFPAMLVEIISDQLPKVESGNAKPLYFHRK
- METHOD NOTES: Functional assay of mineralocorticoid receptor antagonism (Gal4-MR mammalian two hybrid luciferase reporter, 293T cells)
- SETUP CONDITIONS: antagonism of aldosterone (0.4 nM)-induced MR activity
MEASUREMENT KIND: IC50

[[record]]
compound = "O=C1CCCC2(C(F)(F)F)OC3(CN12)c1ccccc1C=Cc1ccccc13 (stereo not shown)"
target_under_test = "UniProt P08235"
test_value = "< 100 nM"

[[record]]
compound = "O=C1CCC2(c3ccccc3)OC3(CN12)c1ccccc1C=Cc1ccccc13 (stereo not shown)"
target_under_test = "UniProt P08235"
test_value = "100 to 1000 nM"

[[record]]
compound = "O=C1CCC2(c3cccs3)OC3(CN12)c1ccccc1C=Cc1ccccc13 (stereo not shown)"
target_under_test = "UniProt P08235"
test_value = "< 100 nM"


query: What IC50 value was documented for this compound, COc1ccc(C23CCC(=O)N2CC2(O3)c3ccccc3C=Cc3ccccc32)cc1 (stereo not shown) ?
result: 100 to 1000 nM

query: What IC50 value was documented for this compound, O=C1CCC2(C3CC3)OC3(CN12)c1ccccc1C=Cc1ccccc13 (stereo not shown) ?
result: < 100 nM

query: What IC50 value was documented for this compound, CC12CCC(=O)N1CC1(O2)c2ccccc2CCc2ccccc21 (stereo not shown) [FRS-13] ?
result: < 100 nM

query: What IC50 value was documented for this compound, CC1(C)OC2(CN1S(C)(=O)=O)c1ccccc1C=Cc1ccccc12 ?
result: < 100 nM

query: What IC50 value was documented for this compound, CC(=O)N1CC2(OC13CCCCC3)c1ccccc1C=Cc1ccccc12 ?
result: 100 to 1000 nM

query: What IC50 value was documented for this compound, CC12CCC(=O)N1CC1(O2)c2ccccc2C=Cc2ccccc21 (stereo not shown) [FRS-1] ?
result: < 100 nM

query: What IC50 value was documented for this compound, CC(=O)N1CC2(OC1(C)C)c1ccccc1C=Cc1ccccc12 ?
result: 100 to 1000 nM

query: What IC50 value was documented for this compound, CC12CCCCC(=O)N1CC1(O2)c2ccccc2C=Cc2ccccc21 (stereo not shown) ?
result: 100 to 1000 nM

query: What IC50 value was documented for this compound, CCCC12CCC(=O)N1CC1(O2)c2ccccc2C=Cc2ccccc21 (stereo not shown) ?
result: < 100 nM

query: What IC50 value was documented for this compound, O=C1CCC2(c3ccn(S(=O)(=O)c4ccccc4)c3)OC3(CN12)c1ccccc1C=Cc1ccccc13 (stereo not shown) ?
result: 100 to 1000 nM

query: What IC50 value was documented for this compound, CC1(C)OC2(CN1C(=O)c1ccccc1)c1ccccc1C=Cc1ccccc12 ?
result: 100 to 1000 nM

query: What IC50 value was documented for this compound, O=C1CCC2(c3ccc(Br)cc3)OC3(CN12)c1ccccc1C=Cc1ccccc13 (stereo not shown) ?
result: < 100 nM

query: What IC50 value was documented for this compound, C1=Cc2ccccc2C2(CN=C(c3ccccc3)O2)c2ccccc21 ?
result: 100 to 1000 nM

Every entry's value here was drawn from patent US7807841B2.
